Test system: Wolbachia pipientis
Test Details: Anti-Wolbachia Cell-Based Screen
Format: functional
Parameters: scale not given: in the data most compounds retested in dose-response had high values
Recorded Conditions: 5 µM
Screen size: about 48,000 compounds; about 13,000 (27%) showed an effect of 50% or more. The list shows a part of the results.
# key: entry, value: Percent Effect
Give the value; after it, write the unit.

Reference set, count: 5
Compound	Assayed System	Percent Effect
CCS(=O)(=O)c1ncc(CN2CCSCC2)n1CCc1ccccc1	Wolbachia pipientis	0.5583%
Cc1ccc(-n2nc3n(c2=O)CCN(C(=O)c2ccc(Cl)cc2)C3)cc1	Wolbachia pipientis	122%
Cc1c(Cl)c(C(=O)N2CC(c3cccnc3)C2)nn1C	Wolbachia pipientis	11%
Cc1ccc(F)c(C(=O)N2C[C@@H](C(=O)O)[C@H](c3ccccc3)C2)c1Cl	Wolbachia pipientis	13.68%
CCOc1cc(CNC(=O)NC2CC=CC2)ccc1OC(F)F	Wolbachia pipientis	-3.557%

Prompt line: I am curious: what Percent Effect value has been reported for COc1ccc2c(c1)C(C(=O)N(C)CCCc1nccn1C)CC(=O)N2 (centres undefined) ?
Response line: 9.372%

Prompt line: I am curious: what Percent Effect value has been reported for O=C(c1ccc(Cl)cc1)N1CCn2c(nn(-c3ccc(Cl)cc3)c2=O)C1 ?
Response line: 107.9%

Prompt line: I am curious: what Percent Effect value has been reported for CC(C)c1nnc2n1CCN(C(=O)c1ccc(OCC(N)=O)cc1)C2 ?
Response line: -11.93%

Prompt line: I am curious: what Percent Effect value has been reported for CN1CCN(Cc2cnc3n2CCN(C(=O)c2ccncc2)C3)CC1 ?
Response line: 9.234%

====

Tested on: Wolbachia pipientis
Test Details: Anti-Wolbachia Cell-Based Screen
Format: functional
Set-up: scale not given: in the data most compounds retested in dose-response had high values
Recorded Conditions: 5 µM
Out of some 48,000 compounds screened, about 13,000 (27%) showed an effect of 50% or more. The list shows a part of the results.
Endpoint Name: Percent Effect (%)
All answers are understood in %, so give the number only.

Reference set, count: 5
Compound	Percent Effect / %
N#Cc1ccsc1C(=O)N1CCCCC1Cn1cccn1 (centres undefined)	-3.499
CN(Cc1ccc(F)cc1)C(=O)NCC1(N2CCOCC2)CCSC1 (centres undefined)	-20.26
CCOC(=O)CCC(=O)N1CCC(CSCc2ccco2)CC1	-5.481
Cc1ccc(N2CCCC3(CCN(C(=O)CC(F)(F)F)C3)C2)nn1 (centres undefined)	-9.607
O=C(c1cc(-c2cccs2)on1)N1CCCCC1Cn1cccn1 (centres undefined)	91.35

Prompt line: I am curious: what Percent Effect value has been reported for Cc1ccc(C(=O)Nc2nnc(CC(C)C)s2)c(-n2cnnn2)c1C ?
Response line: 125.4

Prompt line: I am curious: what Percent Effect value has been reported for CN(Cc1ccccc1-n1cccn1)c1nc(N)nc2c1CCNCC2 ?
Response line: 7.066

Prompt line: I am curious: what Percent Effect value has been reported for Cc1cccc(CN(Cc2ccc(C)o2)C2CC(C)(C)NC(C)(C)C2)n1.O=C(O)CC(O)(CC(=O)O)C(=O)O ?
Response line: -13.89

====

Test system: Wolbachia pipientis
Test Details: Anti-Wolbachia Cell-Based Screen
Type: functional
Parameters: scale not given: in the data most compounds retested in dose-response had high values
Recorded Conditions: 5 µM
In all, about 48,000 compounds went through this assay and about 13,000 (27%) showed an effect of 50% or more. This is one part of the list.
Endpoint Name: Percent Effect (%)
All answers are understood in %, so give the number only.

Reference set, count: 3
Compound	Assayed System	Number
Cc1ccc(-n2c(C)nnc2SCC(O)COCc2ccco2)cc1 (stereo not drawn)	Wolbachia pipientis	-12.77
COCc1cc(N(C)Cc2c(C)nn(C)c2C)n2nccc2n1	Wolbachia pipientis	12.12
CC(C)C(=O)NCc1ccc(N(C)C)cc1	Wolbachia pipientis	131.8

Prompt line: Field: Percent Effect (Wolbachia pipientis). Entry: Cn1ncc2c(N3CCN(C(=O)c4ccsc4)CC3)ncnc21
Response line: 110.5

Prompt line: Field: Percent Effect (Wolbachia pipientis). Entry: CCOC(C)C(=O)NCc1cccc(CN2CCCCCC2)c1 (stereo not drawn)
Response line: 0.5451

Prompt line: Field: Percent Effect (Wolbachia pipientis). Entry: CN(C)c1ccc(CNC(=O)Nc2ccc(S(=O)(=O)C(F)F)cc2)cc1
Response line: -8.512

Prompt line: Field: Percent Effect (Wolbachia pipientis). Entry: CC(OCc1ccccc1)C(=O)NCc1ccc(N(C)C)cc1 (stereo not drawn)
Response line: 130.9

Prompt line: Field: Percent Effect (Wolbachia pipientis). Entry: Cc1csc(N2CCCN(C(=O)c3ccsc3)CC2)n1
Response line: 30.07

Prompt line: Field: Percent Effect (Wolbachia pipientis). Entry: CC(C)Oc1cccc(CN(C)C(=O)Cc2ccon2)c1
Response line: 7.051

Prompt line: Field: Percent Effect (Wolbachia pipientis). Entry: CCOc1cccc(CNC(C)c2ccc(-n3ccnc3)cc2)c1O (stereo not drawn)
Response line: -2.856

Prompt line: Field: Percent Effect (Wolbachia pipientis). Entry: Cc1nc(N2CCN(C(=O)c3ccc(O)cc3)CC2)c2cnn(C)c2n1
Response line: 3.35

Prompt line: Field: Percent Effect (Wolbachia pipientis). Entry: Cc1nccn1CC1CCCN(Cc2ccc(-c3cccnc3)cc2)C1 (stereo not drawn)
Response line: 30.54

Prompt line: Field: Percent Effect (Wolbachia pipientis). Entry: COc1ccc(CCC2CCCN(C(=O)CCc3cc(O)no3)C2)cc1 (stereo not drawn)
Response line: 6.592

Prompt line: Field: Percent Effect (Wolbachia pipientis). Entry: COCCCN1CCC(NC2CSCCc3ccccc32)CC1 (stereo not drawn)
Response line: 3.161

Prompt line: Field: Percent Effect (Wolbachia pipientis). Entry: CN1CCC(CNC(=O)NCc2ccc(N(C)C)cc2)CC1
Response line: -5.904

Prompt line: Field: Percent Effect (Wolbachia pipientis). Entry: O=c1c2cnc(N3CCOCC3)nc2ccn1-c1ccccc1
Response line: 4.201

Prompt line: Field: Percent Effect (Wolbachia pipientis). Entry: CC(C)COC(C)C(=O)NCc1ccc(Cn2ccnc2)cc1 (stereo not drawn)
Response line: 0.5486

Prompt line: Field: Percent Effect (Wolbachia pipientis). Entry: CCOC(C)c1nc(Cn2cccn2)cs1 (stereo not drawn)
Response line: -9.016
